All figures here come from patent US20140356358A1.

Experimental system: T1, human neonatal Fc receptor (hFcRn) (human, UniProt P55899 24-290; P61769 21-119)
T1 construct: Biotinylated in the ELISA, Octet and yeast assays; also called human FcRn; huFcRn
T1 sequence (P55899 24-290 limits assumed, chain 1 of 2): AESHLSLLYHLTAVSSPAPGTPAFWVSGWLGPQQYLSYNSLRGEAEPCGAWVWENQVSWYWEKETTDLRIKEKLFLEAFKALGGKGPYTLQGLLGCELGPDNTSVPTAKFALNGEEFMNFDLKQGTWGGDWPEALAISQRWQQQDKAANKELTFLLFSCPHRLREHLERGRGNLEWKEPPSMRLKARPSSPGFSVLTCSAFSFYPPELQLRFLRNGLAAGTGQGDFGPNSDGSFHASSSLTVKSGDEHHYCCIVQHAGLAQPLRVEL
T1 sequence (P61769 21-119 limits assumed, chain 2 of 2): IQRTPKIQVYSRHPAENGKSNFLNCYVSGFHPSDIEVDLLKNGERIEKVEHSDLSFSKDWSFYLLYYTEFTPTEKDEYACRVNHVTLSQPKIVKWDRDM
Protocol details: phage ELISA pH 6;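 also: higher score means stronger binding and above about 3 to 5 exceeds background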
Measured ELISA score by item
Measure name: ELISA score

>>> recorded_value("L5 isolate with insertion SEQ ID NO: 416 (other) EPKSCDKTHTCPPCPAPELLGGPSVFLFPPKPKDTLMISRTPEVTCVVVDVSHEDPEVKFNWYVDGVEVHNAKTKPREEQYNSTYRVVSVLTVLHQDWLNGKEYKCKVSNKALPAPIEKTISKAKGQPREPQVYTLPPSRDELTKNQVSLTCLVKGFYPSDIAVEWESNGGCETHYTYCGGGQPENNYKTTPPVLDSDGSFFLYSKLTVDKSRWQQGNVFSCSVMHEALHNHYTQKSLSLSPGK")
63
>>> recorded_value("L5 isolate with insertion SEQ ID NO: 462 (other) EPKSCDKTHTCPPCPAPELLGGPSVFLFPPKPKDTLMISRTPEVTCVVVDVSHEDPEVKFNWYVDGVEVHNAKTKPREEQYNSTYRVVSVLTVLHQDWLNGKEYKCKVSNKALPAPIEKTISKAKGQPREPQVYTLPPSRDELTKNQVSLTCLVKGFYPSDIAVEWESNGGCDWHRMKCGGGQPENNYKTTPPVLDSDGSFFLYSKLTVDKSRWQQGNVFSCSVMHEALHNHYTQKSLSLSPGK")
47
>>> recorded_value("L6B isolate with insertion SEQ ID NO: 427 (other) EPKSCDKTHTCPPCPAPELLGGPSVFLFPPKPKDTLMISRTPEVTCVVVDVSHEDPEVKFNWYVDGVEVHNAKTKPREEQYNSTYRVVSVLTVLHQDWLNGKEYKCKVSNKALPAPIEKTISKAKGQPREPQVYTLPPSRDELGGCVQHKMGVVCGGTKNQVSLTCLVKGFYPSDIAVEWESNGQPENNYKTTPPVLDSDGSFFLYSKLTVDKSRWQQGNVFSCSVMHEALHNHYTQKSLSLSPGK")
58.9
